The compounds listed here are annotated with their IC50.
Tested on: Plasmodium falciparum strain D6 (mefloquine-resistant, chloroquine-sensitive)
assay.protocol: In vitro drug sensitivity assay (3H-hypoxanthine incorporation), strain D6
Type: cell-based
settings: Plasmodium falciparum; strain D6; 3H-hypoxanthine incorporation, 42 hours, 37° C; read-out: IC50 (uM), D6
Method: Plasmodium falciparum strains W2 (chloroquine-resistant, mefloquine-sensitive) and D6 (mefloquine-resistant, chloroquine-sensitive)were cultured in a medium consisting of RPMI-1640, 25 mM HEPES, 25 mM NaHCO3, and 10% (v/v) fresh frozen human plasma. […] The activities of the compounds tested were determined by comparing the incorporation of ^3 H-hypoxanthine to drug concentration using computerized non-linear regression analysis. […]
Express your answer in µM, writing the number without its unit.

Use these answered entries as a reference point.
smiles.text: N=C(N)c1cccc(OCCCCCOc2cccc(C(=N)N)c2)c1
assay.system: Plasmodium falciparum strain D6 (mefloquine-resistant, chloroquine-sensitive)
IC50 / µM: 0.069
--
smiles.text: N=C(N)c1ccc(NCCCCNc2ccc(C(=N)N)cc2)cc1
assay.system: Plasmodium falciparum strain D6 (mefloquine-resistant, chloroquine-sensitive)
IC50 / µM: 0.025
--
smiles.text: COc1cc(C2=NCCN2)ccc1OCCCOc1ccc(C2=NCCN2)cc1OC
assay.system: Plasmodium falciparum strain D6 (mefloquine-resistant, chloroquine-sensitive)
IC50 / µM: 0.1

As a next step, examine the compound that follows.
Given the compound c1cc(C2=NCCN2)ccc1OCCCCCOc1ccc(C2=NCCN2)cc1 , what is its reported IC50?
0.023

// data source = patent US5206236A
